Biological target: C5AR1 (Homo sapiens)
Sequence (P21730 1-350): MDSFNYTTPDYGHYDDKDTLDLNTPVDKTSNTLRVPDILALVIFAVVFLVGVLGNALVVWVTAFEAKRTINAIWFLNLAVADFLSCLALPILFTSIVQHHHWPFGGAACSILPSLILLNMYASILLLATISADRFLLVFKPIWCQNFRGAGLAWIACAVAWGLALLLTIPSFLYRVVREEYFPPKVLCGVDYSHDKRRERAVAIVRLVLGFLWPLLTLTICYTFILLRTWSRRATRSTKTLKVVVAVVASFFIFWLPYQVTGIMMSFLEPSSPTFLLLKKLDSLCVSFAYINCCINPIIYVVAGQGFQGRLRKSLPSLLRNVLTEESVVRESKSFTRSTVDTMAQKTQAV
Experiment: hC5a DISCO IC50 assay (PathHunter beta-arrestin, antagonist mode)
Conditions: CHO-K1 C5AR1 beta-arrestin cell line; antagonist vs 1-10 nM C5a agonist; geometric mean values; read-out: C5aR IC50
Hi! Could you tag entries with IC50 below 300 nM as criterion met, and those at or above as criterion not met? Much appreciated.

[
  {
    "molecule": "COc1cccc2c1n(Cc1ccccc1C(F)(F)F)c(=O)n2C1CCN(c2ncccc2F)CC1 [Example 236]",
    "label value": "criterion met"
  },
  {
    "molecule": "COc1cccc2c1n(Cc1ccccc1C(F)(F)F)c(=O)n2C1CCCN(C(=O)OC(C)(C)C)CC1 (centres unmarked) [Example 179]",
    "label value": "criterion met"
  },
  {
    "molecule": "COc1cccc2c1n(Cc1ccccc1C(F)(F)F)c(=O)n2C1CCN(c2ccccc2)CC1 [Example 4]",
    "label value": "criterion met"
  },
  {
    "molecule": "Cc1cccc(F)c1N1CC[C@@H](n2c(=O)n(Cc3ccccc3C(F)(F)F)c3c(OC4CCN(C)C4)nccc32)C1 (some centres unmarked) [Example 130]",
    "label value": "criterion not met"
  },
  {
    "molecule": "COc1cccc2c1n(Cc1ncccc1C(F)(F)F)c(=O)n2[C@@H]1CCN(c2c(C)cccc2F)C1 [Example 202]",
    "label value": "criterion met"
  },
  {
    "molecule": "COc1ccccc1Cn1c(=O)n([C@@H]2CCN(c3c(C)cccc3C)C2)c2cccc(OC)c21 [Example 67]",
    "label value": "criterion met"
  },
  {
    "molecule": "COc1cccc2c1n(Cc1ncccc1C(F)(F)F)c(=O)n2C1CCN(c2c(C)cccc2C)CC1 [Example 75]",
    "label value": "criterion met"
  },
  {
    "molecule": "COc1cccc2c1n(Cc1ccccc1C(F)(F)F)c(=O)n2[C@@H]1CCN(c2c(C)ccnc2C)C1 [Example 66]",
    "label value": "criterion met"
  },
  {
    "molecule": "COc1cccc2c1n(Cc1ccncc1C(F)(F)F)c(=O)n2C1CCN(c2c(C)cccc2C)CC1 [Example 73]",
    "label value": "criterion met"
  },
  {
    "molecule": "CNCc1cccc(F)c1N1CC[C@@H](n2c(=O)n(Cc3ccccc3C(F)(F)F)c3c(OC)cccc32)C1 [Example 103]",
    "label value": "criterion not met"
  },
  {
    "molecule": "COc1cccc2c1n(Cc1ccccc1C(F)(F)F)c(=O)n2[C@@H]1CCN(c2c(C#N)c(C)nn2C)C1 [Example 87]",
    "label value": "criterion not met"
  },
  {
    "molecule": "COc1cccc2c1n(Cc1ccccc1C(F)(F)F)c(=O)n2[C@@H]1CCN(c2cc(C)nn2C)C1 [Example 79]",
    "label value": "criterion not met"
  },
  {
    "molecule": "COCCN(C)Cc1cccc(F)c1N1CC[C@@H](n2c(=O)n(Cc3ccccc3C(F)(F)F)c3c(OC)cccc32)C1 [Example 139]",
    "label value": "criterion met"
  },
  {
    "molecule": "COc1ccnc2c1n(Cc1ccccc1C(F)(F)F)c(=O)n2[C@@H]1CCN(c2c(F)cccc2F)C1 [Example 46]",
    "label value": "criterion met"
  },
  {
    "molecule": "COc1cccc2c1n(Cc1ccccc1C(F)(F)F)c(=O)n2[C@@H]1CCN(c2c(C=O)c(C)nn2C)C1 [Example 71]",
    "label value": "criterion met"
  },
  {
    "molecule": "COc1ncncc1Cn1c(=O)n([C@@H]2CCN(c3c(C)cccc3F)C2)c2cccc(OC)c21 [Example 175]",
    "label value": "criterion met"
  },
  {
    "molecule": "COc1ncncc1Cn1c(=O)n([C@@H]2CCN(c3c(F)cccc3C#N)C2)c2cccc(OC)c21 [Example 114]",
    "label value": "criterion not met"
  },
  {
    "molecule": "COc1cccc2c1n(Cc1ccccc1C(F)(F)F)c(=O)n2[C@@H]1CCN(c2nnc(C(F)(F)F)o2)C1 [Example 84]",
    "label value": "criterion not met"
  },
  {
    "molecule": "COc1cccc2c1n(Cc1ccccc1C(F)(F)F)c(=O)n2C1CCN(c2ccccc2OCCO)CC1 [Example 238]",
    "label value": "criterion met"
  },
  {
    "molecule": "COc1cccc2c1n(Cc1ccccc1C(F)(F)F)c(=O)n2C1CCN(c2c(F)cccc2F)CC1 [Example 9]",
    "label value": "criterion met"
  },
  {
    "molecule": "CN(C)C(=O)c1cccc2c1n(Cc1ccccc1C(F)(F)F)c(=O)n2[C@@H]1CCN(c2c(F)cccc2C#N)C1 [Example 101]",
    "label value": "criterion not met"
  },
  {
    "molecule": "COc1cccc2c1n(Cc1ccccc1C(F)(F)F)c(=O)n2[C@@H]1CCN(c2c(F)cccc2CCN2CCOCC2)C1 [Example 131]",
    "label value": "criterion met"
  },
  {
    "molecule": "COc1ncnc(OC)c1N1CCC(n2c(=O)n(Cc3ccccc3C(F)(F)F)c3c(OC)cccc32)CC1 [Example 250]",
    "label value": "criterion not met"
  },
  {
    "molecule": "COc1cccc2c1n(Cc1cncnc1C(F)(F)F)c(=O)n2[C@@H]1CCN(c2c(C)cccc2F)C1 [Example 176]",
    "label value": "criterion met"
  },
  {
    "molecule": "Cc1cccc(C)c1N1CC[C@@H](n2c(=O)n(Cc3ccccc3C(F)(F)F)c3c(=O)[nH]ccc32)C1 [Example 93]",
    "label value": "criterion met"
  },
  {
    "molecule": "COc1cccc2c1n(Cc1nnccc1C)c(=O)n2[C@@H]1CCN(c2c(C)cccc2F)C1 [Example 174]",
    "label value": "criterion not met"
  },
  {
    "molecule": "COc1cc(C)nc2c1n(Cc1ccccc1C(F)(F)F)c(=O)n2[C@@H]1CCN(c2c(C)cccc2F)C1 [Example 171]",
    "label value": "criterion met"
  },
  {
    "molecule": "COc1nccnc1Cn1c(=O)n([C@@H]2CCN(c3c(F)cccc3C#N)C2)c2cccc(OC)c21 [Example 112]",
    "label value": "criterion not met"
  },
  {
    "molecule": "Cc1cccc(F)c1N1CC[C@@H](n2c(=O)n(Cc3ccccc3C(F)(F)F)c3c(OCC4COC(C)(C)O4)nccc32)C1 (some centres unmarked) [Example 125]",
    "label value": "criterion met"
  }
]

====

Parameter: pIC50. Scope: all listed entries.
Target: C5AR1 (Homo sapiens, UniProt P21730)
Construct: host or cells: CHO-K1
Experiment: hC5a DISCO IC50 assay (PathHunter beta-arrestin, antagonist mode)
Format: cell-based
Conditions: CHO-K1 C5AR1 beta-arrestin cell line; antagonist vs 1-10 nM C5a agonist; geometric mean values; read-out: C5aR IC50
pIC50: −log10 of the molar value.

[
  {
    "compound": "COc1cccc2c1n(Cc1ccccc1OC1CC1)c(=O)n2C1CCN(c2c(C)cccc2F)CC1",
    "pIC50": 7.47
  },
  {
    "compound": "COc1cccc2c1n(Cc1ccccc1C(F)(F)F)c(=O)n2C1CCN(c2ncccc2C)CC1",
    "pIC50": 7.09
  },
  {
    "compound": "COc1cccc2c1n(Cc1cncnc1C(F)(F)F)c(=O)n2C1CCN(c2c(F)cccc2C#N)CC1",
    "pIC50": 6.51
  },
  {
    "compound": "COc1cccc2c1n(Cc1cnccc1C(F)(F)F)c(=O)n2C1CCN(c2c(F)cccc2F)CC1",
    "pIC50": 7.31
  },
  {
    "compound": "COc1cccc2c1n(Cc1ccccc1C(F)(F)F)c(=O)n2C1CCN(C(=O)OC(C)(C)C)CC1(C)C (centres unmarked)",
    "pIC50": 6.59
  },
  {
    "compound": "Cc1cccc(F)c1N1CC[C@@H](n2c(=O)n(Cc3ccccc3C(F)(F)F)c3c(=O)[nH]ccc32)C1",
    "pIC50": 7.05
  },
  {
    "compound": "COc1ccccc1Cn1c(=O)n([C@@H]2CCN(c3c(C)cccc3F)C2)c2cc[nH]c(=O)c21",
    "pIC50": 5.61
  },
  {
    "compound": "COc1cccc2c1n(Cc1ccccc1C(F)(F)F)c(=O)n2[C@@H]1CCN(C(C)C)C1",
    "pIC50": 6.19
  }
]
